This collection of values is drawn from patent US11578061B2.

Biological target: recombinant human LRRK2 (catalytic domain only [amino acids 970-2527], GST-tagged) (Homo sapiens (Human), UniProt Q5S007)
Sequence (Q5S007 970-2527): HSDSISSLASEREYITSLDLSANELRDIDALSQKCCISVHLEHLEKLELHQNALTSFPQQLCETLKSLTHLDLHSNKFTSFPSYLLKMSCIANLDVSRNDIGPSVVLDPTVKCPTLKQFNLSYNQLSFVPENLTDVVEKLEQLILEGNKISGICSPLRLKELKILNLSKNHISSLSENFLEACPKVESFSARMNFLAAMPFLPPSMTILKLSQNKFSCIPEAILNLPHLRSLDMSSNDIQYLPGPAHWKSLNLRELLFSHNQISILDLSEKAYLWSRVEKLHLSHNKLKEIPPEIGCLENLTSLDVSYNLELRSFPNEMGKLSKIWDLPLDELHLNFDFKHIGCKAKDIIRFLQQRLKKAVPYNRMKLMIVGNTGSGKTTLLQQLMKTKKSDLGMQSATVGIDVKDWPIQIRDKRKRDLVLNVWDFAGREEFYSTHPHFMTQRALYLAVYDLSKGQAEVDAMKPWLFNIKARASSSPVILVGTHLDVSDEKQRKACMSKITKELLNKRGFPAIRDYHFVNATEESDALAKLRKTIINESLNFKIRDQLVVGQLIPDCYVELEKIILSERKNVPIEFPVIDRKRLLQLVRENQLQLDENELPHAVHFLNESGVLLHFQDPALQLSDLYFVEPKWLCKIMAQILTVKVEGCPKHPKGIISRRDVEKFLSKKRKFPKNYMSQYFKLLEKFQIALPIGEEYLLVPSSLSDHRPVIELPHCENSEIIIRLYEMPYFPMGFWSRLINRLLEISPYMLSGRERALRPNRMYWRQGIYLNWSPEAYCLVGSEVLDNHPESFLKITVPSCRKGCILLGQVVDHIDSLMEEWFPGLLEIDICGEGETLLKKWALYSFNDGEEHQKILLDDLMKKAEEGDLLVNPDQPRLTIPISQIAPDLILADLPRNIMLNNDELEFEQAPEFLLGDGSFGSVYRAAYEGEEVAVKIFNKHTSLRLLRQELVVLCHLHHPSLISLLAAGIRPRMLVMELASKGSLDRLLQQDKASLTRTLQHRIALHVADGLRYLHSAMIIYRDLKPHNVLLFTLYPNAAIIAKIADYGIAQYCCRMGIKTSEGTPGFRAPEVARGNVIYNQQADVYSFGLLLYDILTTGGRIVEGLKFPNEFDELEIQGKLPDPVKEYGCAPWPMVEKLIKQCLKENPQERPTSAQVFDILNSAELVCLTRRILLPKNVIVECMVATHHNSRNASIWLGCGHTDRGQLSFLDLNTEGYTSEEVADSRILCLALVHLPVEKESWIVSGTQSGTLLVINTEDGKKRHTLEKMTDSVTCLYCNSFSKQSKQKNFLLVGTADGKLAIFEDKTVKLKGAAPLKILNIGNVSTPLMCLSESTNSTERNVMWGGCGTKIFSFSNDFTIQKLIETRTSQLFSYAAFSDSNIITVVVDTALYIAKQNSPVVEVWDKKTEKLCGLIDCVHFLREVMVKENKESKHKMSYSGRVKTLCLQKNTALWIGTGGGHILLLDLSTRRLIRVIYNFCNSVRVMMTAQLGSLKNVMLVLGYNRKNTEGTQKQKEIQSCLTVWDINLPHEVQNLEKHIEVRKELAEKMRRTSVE
Assay: LRRK2 Enzymatic Assay
Conditions: LRRKtide substrate, [32P]-ATP
pIC50: −log10 of the molar value.
measurement type: pIC50

| compound | measured |
| --- | --- |
| Cc1nn(C(C)(C)C#N)cc1Nc1ncc(F)c(OC[C@@H]2CCC[C@@H](O)C2)n1 [Example 250] | > 7.30 |
| Fc1cnc(Nc2ccc(N3CCOCC3)cc2)nc1OCC1CCNCC1(F)F (centres unmarked) [Example 29] | > 7.30 |
| Cc1nn(C(C)(C)C#N)cc1Nc1ncc(F)c(OC[C@H]2CC[C@H](NC(=O)C(F)(F)F)CC2)n1 [Example 212] | 6.70 to 7.30 |
| OCCn1ncc(Nc2ncc(F)c(OC[C@H]3CC[C@H](O)CC3)n2)c1Cl [Example 240] | 6.70 to 7.30 |
| CN[C@H]1CC[C@H](COc2nc(Nc3cn(C(C)(C)C#N)nc3C)ncc2Cl)CC1 [Example 39] | > 7.30 |
| Cc1nn(C(C)(C)C#N)cc1Nc1ncc(F)c(OCC23CCC(O)(CC2)CC3)n1 [Example 257] | 6.70 to 7.30 |
| CC(=O)N1CCC(COc2nc(Nc3cn(C(C)(C)C#N)nc3C)ncc2F)C(F)C1 (single isomer, unassigned) [Example 176] | 6.40 to 6.70 |
| CNC[C@H]1CC[C@H](COc2ccnc(Nc3ccc(N4CCOCC4)cc3)n2)CC1 [Example 48] | 6.70 to 7.30 |
| CCc1nn(C)cc1Nc1ncc(F)c(OC[C@H]2CC[C@H](NC(C)=O)CC2)n1 [Example 198] | > 7.30 |
| O[C@H]1CC[C@H](COc2nc(Nc3ccc(N4CCOCC4)cc3)nc(Cl)c2F)CC1 [Example 246] | < 6.40 |
| O=C(C(F)F)N1CCC(COc2nc(Nc3cccc(N4CCOCC4)c3)ncc2Cl)CC1 [Example 110] | > 7.30 |
| CC(C)n1cc(Nc2ncc(F)c(OC[C@H]3CC[C@H](NC(=O)C(F)(F)F)CC3)n2)cn1 [Example 210] | > 7.30 |
| Cc1c(Nc2ncc(F)c(OC[C@H]3CC[C@H](O)CC3)n2)cnn1C(F)F [Example 235] | 6.70 to 7.30 |
| C[C@@H]1CN(c2ccc(Nc3ncc(F)c(OCC4CCS(=O)(=O)CC4)n3)cc2)C[C@H](C)O1 [Example 288] | < 6.40 |
| Cc1nn(C2CC(C#N)C2)cc1Nc1ncc(Cl)c(OCC2CCOC(C)(C)C2)n1 (centres unmarked) [Example 150] | 6.70 to 7.30 |
| Cc1nn(C2CC(C#N)C2)cc1Nc1ncc(Cl)c(OCC2CCN(C)CC2)n1 (centres unmarked) [Example 59] | 6.40 to 6.70 |
| N[C@H]1CC[C@H](COc2nc(Nc3ccc(N4CCOCC4)cc3)ncc2Cl)CC1 [Example 9] | > 7.30 |
| FC(F)(F)CN[C@H]1CC[C@H](COc2nc(Nc3ccc(N4CCOCC4)cc3)ncc2Cl)CC1 [Example 108] | > 7.30 |
| Cc1nn(C(C)(C)C#N)cc1Nc1ncc(Cl)c(OCC2CN(C)C2)n1 [Example 68] | < 6.40 |
| NC[C@H]1CC[C@H](COc2nc(Nc3ccc(N4CCOCC4)cc3)ncc2Cl)CC1 [Example 14] | > 7.30 |
| O=C(N[C@H]1CC[C@@H](COc2nc(Nc3ccc(N4CCOCC4)cc3)ncc2Cl)C1)C(F)F [Example 102] | > 7.30 |
| CC(=O)NC1CCCC(COc2nc(Nc3ccc(N4C[C@@H](C)O[C@@H](C)C4)cc3)ncc2F)CC1 (some centres unmarked) [Example 93] | > 7.30 |
| CC(C)(C#N)n1cc(Nc2ncc(F)c(OC[C@H]3CC[C@H](O)CC3)n2)cn1 [Example 221] | 6.70 to 7.30 |
| CC(C)n1cc(Nc2ncc(F)c(OC[C@H]3CC[C@H](C(C)(C)O)CC3)n2)cn1 [Example 255] | 6.70 to 7.30 |
| Cc1nn(C(C)(C)C#N)cc1Nc1ncc(Cl)c(OCC2CCC(C(F)(F)F)CC2)n1 (centres unmarked) [Example 157] | 6.70 to 7.30 |
| CC(=O)N[C@H]1CC[C@H](COc2nc(Nc3cn(C(C)(C)C#N)nc3C)ncc2F)CC1 [Example 84] | > 7.30 |
| CN[C@H]1CC[C@H](COc2nc(Nc3ccc(N4CCOCC4)cc3)ncc2F)CC1 [Example 42] | > 7.30 |
| Cc1nc(Nc2ccc(N3CCOCC3)cc2)nc(OC[C@H]2CC[C@H](O)CC2)c1F [Example 265] | < 6.40 |
| COc1nn(C(C)C)cc1Nc1ncc(F)c(OC[C@H]2CC[C@H](NC(=O)C(F)(F)F)CC2)n1 [Example 213] | > 7.30 |
| Cc1nn(C(C)(C)C#N)cc1Nc1ncc(F)c(OC[C@H]2CC[C@H](O)CC2)n1 [Example 125] | > 7.30 |
| Cc1nn(C(C)(C)C#N)cc1Nc1ncc(F)c(OCC2CCC(OC(C)C)CC2)n1 (racemic) [Example 280] | 6.70 to 7.30 |
| CC(=O)N[C@H]1CC[C@H](COc2nc(Nc3cn(C4CC4)nc3C)ncc2F)CC1 [Example 196] | > 7.30 |

----------
Target: recombinant human LRRK2 (catalytic domain only [amino acids 970-2527], GST-tagged) (Homo sapiens (Human), UniProt Q5S007)
Assay: LRRK2 Enzymatic Assay
Conditions: LRRKtide substrate, [32P]-ATP
Excerpt: […]
pIC50: −log10 of the molar value.
measurement type: pIC50

| compound | measurement type | measured |
| --- | --- | --- |
| CC(=O)N[C@H]1CC[C@H](COc2nc(Nc3cn(C)nc3Cl)ncc2F)CC1 | pIC50 | > 7.30 |
| CC(=O)N[C@H]1CC[C@H](COc2nc(Nc3ccc(N4C5CCC4COC5)cc3)ncc2F)CC1 | pIC50 | > 7.30 |
| N[C@H]1CC[C@H](COc2nc(Nc3ccc(N4CCOCC4)cc3)ncc2C(F)(F)F)CC1 | pIC50 | < 6.40 |
| N#CC1CCC(COc2nc(Nc3ccc(N4CCOCC4)cc3)ncc2F)CC1 (racemic) | pIC50 | > 7.30 |
| Fc1cnc(Nc2ccc(N3CCOCC3)cc2)nc1OCC1CCC(F)(F)CC1 | pIC50 | 6.70 to 7.30 |
| Cc1nn(C(C)(C)C#N)cc1Nc1ncc(F)c(OCC2CCN(C)CC2)n1 | pIC50 | < 6.40 |
| CC(C)(O)[C@H]1CC[C@H](COc2nc(Nc3ccc(N4C5CCC4COC5)cc3)ncc2F)CC1 | pIC50 | 6.70 to 7.30 |
| CCN1CCN(c2ccc(Nc3nccc(OCC4CCC(O)CC4)n3)nc2)CC1 (centres unmarked) | pIC50 | < 6.40 |

----------
Target: recombinant human LRRK2 (catalytic domain only [amino acids 970-2527], GST-tagged) (Homo sapiens (Human), UniProt Q5S007)
Experiment: LRRK2 Enzymatic Assay
Type: biochemical
Conditions: LRRKtide substrate, [32P]-ATP
Excerpt: […]
pIC50: −log10 of the molar value.
Reported pIC50 values are given for each entry in this list.
measurement type: pIC50

| compound | measured |
| --- | --- |
| C[C@@H]1CN(c2ccc(Nc3ncc(Cl)c(OCC4CCC(O)CC4)n3)cc2)C[C@H](C)O1 (some centres unmarked) | > 7.30 |
| COc1cc(C(=O)N2CCOCC2)c(F)cc1Nc1ncc(F)c(OC[C@H]2CC[C@H](O)CC2)n1 | 6.70 to 7.30 |
| N[C@H]1CC[C@H](COc2ccnc(Nc3ccc(N4CCOCC4)cc3)n2)CC1 | > 7.30 |
| Fc1cnc(Nc2ccc(N3C4CCC3COC4)cc2)nc1OCC1CCNCC1(F)F (centres unmarked) | 6.70 to 7.30 |
| CC(=O)N1CC2(CC(COc3nc(Nc4ccc(N5C[C@@H](C)O[C@@H](C)C5)cc4)ncc3F)C2)C1 | < 6.40 |
| CNC1CCCC(COc2ccnc(Nc3ccc(N4CCOCC4)cc3)n2)C1 (centres unmarked) | 6.40 to 6.70 |
| Cc1nn(C(C)(C)C#N)cc1Nc1ncc(F)c(OCC2CCC(C)(O)CC2)n1 (centres unmarked) | > 7.30 |
| CC(C)n1cc(Nc2ncc(F)c(OCC34CCC(O)(CC3)CC4)n2)cn1 | > 7.30 |

----------
Target: recombinant human LRRK2 (catalytic domain only [amino acids 970-2527], GST-tagged) (Homo sapiens (Human), UniProt Q5S007)
Experiment: LRRK2 Enzymatic Assay
Conditions: LRRKtide substrate, [32P]-ATP
pIC50: −log10 of the molar value.
Measured pIC50 of individual entries

| compound | pIC50 |
| --- | --- |
| CN[C@H]1CC[C@H](COc2nc(Nc3cn(C4CC(C#N)C4)nc3C)ncc2Cl)CC1 (stereo partly drawn) | > 7.30 |
| CC(=O)N1CCC(COc2nc(Nc3ccc(N4C[C@@H](C)O[C@@H](C)C4)cc3)ncc2F)C(F)C1 (single isomer, unassigned) [Example 174] | 6.40 to 6.70 |
| C[C@@H]1CN(c2ccc(Nc3ncc(F)c(OCC4CCC(F)(F)CC4)n3)cc2)C[C@H](C)O1 | 6.40 to 6.70 |
| COc1cnc(Nc2ccc(N3CCOCC3)cc2)nc1OCC1CCC(F)(F)CC1 | 6.70 to 7.30 |
| O=C(C(F)F)N1CCC(COc2nc(Nc3ccc(N4CCOCC4)cc3)ncc2Cl)CC1 | > 7.30 |
| CC(=O)N[C@H]1CC[C@H](COc2nc(Nc3ccc(N4CCOCC4)cc3)ncc2F)CC1 | > 7.30 |
| COCCn1cc(Nc2ncc(F)c(OC[C@H]3CC[C@H](NC(C)=O)CC3)n2)cn1 | > 7.30 |
| COc1nn(C(C)C)cc1Nc1ncc(F)c(OC[C@H]2CC[C@H](O)CC2)n1 | < 6.40 |
| CC(C)n1cc(Nc2ncc(F)c(OC[C@H]3CC[C@@H](O)CC3)n2)cn1 | < 6.40 |
| CC1(C(=O)N[C@H]2CC[C@H](COc3ccnc(Nc4ccc(N5CCOCC5)cc4)n3)CC2)CC1 | < 6.40 |
| Cc1nn(C(C)(C)C#N)cc1Nc1ncc(F)c(OC[C@H]2CC[C@@H](O)CC2)n1 | > 7.30 |
| OC12CCC(COc3ccnc(Nc4ccc(N5CCOCC5)cc4)n3)(CC1)CC2 | < 6.40 |
| Cc1nn(C(C)(C)C#N)cc1Nc1ncc(F)c(OCC2CCC(O)(C(F)(F)F)CC2)n1 (stereo not drawn) | 6.70 to 7.30 |
| C[C@@H]1CN(c2ccc(Nc3ncc(F)c(OCC4CCNCC4F)n3)cc2)C[C@H](C)O1 (single isomer, unassigned) [Example 169] | 6.70 to 7.30 |
| CC(=O)N[C@H]1CC[C@H](COc2nc(Nc3cn(C(C)C)nc3Cl)ncc2F)CC1 | > 7.30 |
| Cc1nn(C2CC(C#N)C2)cc1Nc1ncc(Cl)c(OCC2CCC(O)CC2)n1 (stereo not drawn) | > 7.30 |
| COc1cnc(Nc2ccc(N3CCOCC3)cc2)nc1OC[C@H]1CC[C@H](NCC(F)(F)F)CC1 | 6.70 to 7.30 |
| Cc1nn(C(C)(C)C#N)cc1Nc1ncc(Cl)c(OCC2CNC2)n1 | < 6.40 |
| Cc1nn(C(C)(C)C#N)cc1Nc1ncc(Cl)c(OCC2COC2)n1 | 6.70 to 7.30 |
| Cc1nn(C2CC(C#N)C2)cc1Nc1ncc(Cl)c(OCC2CC(F)(F)C2)n1 (stereo not drawn) | 6.70 to 7.30 |
| CNC1(COc2nc(Nc3ccc(N4CCOCC4)cc3)ncc2Cl)CC1 | 6.40 to 6.70 |
| C[C@@H]1CN(c2ccc(Nc3nccc(OCC4CCC(O)CC4)n3)cc2)C[C@H](C)O1 (stereo partly drawn) | 6.70 to 7.30 |
| NC1CCCC(COc2ccnc(Nc3ccc(N4CCOCC4)cc3)n2)C1 (stereo not drawn) | 6.70 to 7.30 |
| Cc1nn(C(C)(C)C#N)cc1Nc1ncc(F)c(OCC2CCC(F)(F)CC2)n1 | 6.70 to 7.30 |
| Cc1nn(C(C)(C)C#N)cc1Nc1nccc(OCC2CCC(O)C2)n1 (stereo not drawn) | 6.70 to 7.30 |
| CN[C@H]1CC[C@H](COc2ccnc(Nc3cn(C(C)(C)C#N)nc3C)n2)CC1 | > 7.30 |
| CCO[C@H]1CC[C@@H](COc2nc(Nc3cn(C(C)(C)C#N)nc3C)ncc2F)CC1 | > 7.30 |
| Cc1nc(Nc2ccc(N3C[C@@H](C)O[C@@H](C)C3)cc2)nc(OC[C@H]2CC[C@H](O)CC2)c1F | < 6.40 |
| Cc1nn(C2CC(C#N)C2)cc1Nc1ncc(Cl)c(OCC2CCN(C)CC2F)n1 (stereo not drawn) | < 6.40 |
| Cc1nn(C(C)(C)C#N)cc1Nc1ncc(Cl)c(OCC2CCN(C)CC2)n1 | 6.70 to 7.30 |
| N[C@H]1CC[C@H](COc2ccnc(Nc3cccc(N4CCOCC4)c3)n2)CC1 | > 7.30 |
| O[C@H]1CC[C@H](COc2nc(Nc3cnn(CCF)c3)ncc2F)CC1 | > 7.30 |
| C[C@@H]1CN(c2ccc(Nc3nccc(OCC4CCC(CO)CC4)n3)cc2)C[C@H](C)O1 (stereo partly drawn) | 6.70 to 7.30 |
